Compiled literature Ki, tested on Human σ1 receptor (Homo sapiens, UniProt Q99720).
Sequence (Q99720 whole entry): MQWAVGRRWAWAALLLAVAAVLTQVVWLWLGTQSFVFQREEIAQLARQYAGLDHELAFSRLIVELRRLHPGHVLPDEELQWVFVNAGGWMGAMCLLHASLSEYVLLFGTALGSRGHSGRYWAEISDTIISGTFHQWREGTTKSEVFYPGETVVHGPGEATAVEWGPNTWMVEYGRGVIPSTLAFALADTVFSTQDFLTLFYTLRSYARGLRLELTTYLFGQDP

Some compounds with known Ki results, for comparison:
INSERT INTO results (compound, val) VALUES
  ('Cc1cc(-c2nn(C)c(Cl)c2C(=O)N2CC[C@]3(C2)C[C@H](NCCC(C)(C)C)C3)no1', '> 1000 nM'),
  ('Cc1cc(-c2nn(-c3ccccc3)c(Cl)c2C(=O)N2CCC3(CCN(CCC(C)(C)C)CC3)CC2)no1', '< 100 nM');

Looking up CCc1ncc(-c2cccc(C)n2)c(C2CCN(CC(=O)N3CCOCC3)CC2)n1 , I see its Ki listed as > 1000 nM

Looking up CCn1nc(-c2cc(C)on2)c(C(=O)NC2CCCN(CCC(C)(C)C)CC2)c1Cl (stereo not drawn) , I see its Ki listed as < 100 nM

Looking up CN(CC1CCOCC1)C1CCN(S(=O)(=O)c2ccc(N3CCOC3=O)nc2)CC1 , I see its Ki listed as 100 to 500 nM

Looking up Cc1cc(-c2nn(C)c(Cl)c2C(=O)N2CCCCC(N(C)CCC(C)C)C2)no1 (stereo not drawn) , I see its Ki listed as 100 to 500 nM
